Compiled notes: published pIC50 values involving UniProt P24557.
When answering, recall that pIC50 equals minus log10 of the concentration in mol/L, and write that number alone.

A selection of reference data follows.
[[record]]
molecule = "O=C(O)c1sc2cc(Cn3ccnc3)ccc2c1Cl"
measured_target = "UniProt P24557"
assay_value = 8.13

[[record]]
molecule = "O=C(O)CCCC(c1ccc(CCNS(=O)(=O)c2ccc(Cl)cc2)cc1)c1cccnc1 (stereo not given)"
measured_target = "UniProt P24557"
assay_value = 7.01

[[record]]
molecule = "O=C(O)CCCCO/N=C(/c1cncnc1)c1cccc(C(F)(F)F)c1"
measured_target = "UniProt P24557"
assay_value = 7.41


Q. What value of pIC50 has been recorded for this entry: "CCN(CC)S(=O)(=O)NCCc1cc(CCC(=O)O)cc(Cc2cccnc2)c1"
A. 7.54

Q. // repeat for "O=C(O)CCC/C=C(\CCCNS(=O)(=O)c1ccc(Cl)cc1)c1cccnc1" and report
A. 7.62

###

# MEASURED TARGET: Thromboxane-A synthase (Homo sapiens, UniProt P24557)
# Sequence (P24557 whole entry): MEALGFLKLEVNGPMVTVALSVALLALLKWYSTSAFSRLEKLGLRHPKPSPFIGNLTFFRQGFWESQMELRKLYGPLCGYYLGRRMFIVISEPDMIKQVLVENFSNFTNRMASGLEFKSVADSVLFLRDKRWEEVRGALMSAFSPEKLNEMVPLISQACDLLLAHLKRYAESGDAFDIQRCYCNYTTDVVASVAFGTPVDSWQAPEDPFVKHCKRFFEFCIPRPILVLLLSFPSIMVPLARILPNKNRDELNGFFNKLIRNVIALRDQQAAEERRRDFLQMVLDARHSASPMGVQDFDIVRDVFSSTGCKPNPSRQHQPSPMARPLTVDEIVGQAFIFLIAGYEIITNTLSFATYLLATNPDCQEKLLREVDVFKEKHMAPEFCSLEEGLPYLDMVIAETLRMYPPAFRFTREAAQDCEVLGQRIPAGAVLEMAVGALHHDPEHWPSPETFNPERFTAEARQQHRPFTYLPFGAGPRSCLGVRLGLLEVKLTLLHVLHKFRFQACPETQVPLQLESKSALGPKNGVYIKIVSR
Compiled notes: published pIC50 values involving Thromboxane-A synthase (Homo sapiens, UniProt P24557).
When answering, recall that pIC50 equals minus log10 of the concentration in mol/L, and write that number alone.

Q. # get_value(readout= pIC50, system= Thromboxane-A synthase (Homo sapiens, UniProt P24557)) for Cl.O=C(O)CCCCCC(CNS(=O)(=O)c1ccc(Cl)c(Cl)c1)c1cccnc1 (stereo not drawn)
A. 7.40

Q. // repeat for CC(CC(CCCCNS(=O)(=O)c1ccc(Cl)cc1)CCCc1cccnc1)C(=O)O (stereo not drawn) and report
A. 8.52

Q. // repeat for O=C(O)CCC/C=C(/c1cccnc1)c1ccc2c(c1)CC(NS(=O)(=O)c1ccc(F)cc1)C2 (stereo not drawn) and report
A. 9.00

###

Compiled notes: published IC50 values involving UniProt:P24557.
Mark Y only when IC50 stays strictly below 80 nM. Values equal to the cut-off are N.

Q. Please let me know if "O=C(O)CC/C=C\C[C@@H]1CO[C@H](CCCCCOc2ccc(/C(=C\CCCCC(=O)O)c3cccnc3)cc2)O[C@@H]1c1ccccc1O" shows IC50 below 80 nM.
A. Y

Q. // repeat for "O=C(O)CCO/N=C(\c1ccc(CCNS(=O)(=O)c2ccc(Cl)cc2)cc1)c1cccnc1" and report
A. Y

Q. // repeat for "O=C(O)CCC/C=C(\c1ccc(CCN(Cc2ccc(C(=O)O)cc2)S(=O)(=O)c2ccc(Cl)cc2)cc1)c1cccnc1" and report
A. Y

Q. // repeat for "c1ccc(CNc2nc(-n3ccnc3)nc3ccccc23)cc1" and report
A. N

Q. // repeat for "O=C(O)CCCCO/N=C(/c1cccnc1)c1cccc(C(F)(F)F)c1" and report
A. Y

Q. // repeat for "Cc1ccc(S(=O)(=O)NCCc2ccc(/C(=C\C(=O)NCC(=O)O)c3cccnc3)cc2)cc1" and report
A. N
